B1: CD2-associated protein, residues 109 to 169; numbered along this chain, Q9Y5K6 (parent)
chain: KKRQCKVLFEYIPQNEDELELKVGDIIDINEEVEEGWWSGTLNNKLGLFPSNFVKELEVTD

Variants of: B1
Experiment: abundance fitness (aPCA) (normalised: wild type 0, dead -1); higher = more abundant; growth selection in yeast, the domain comes from the species named
Details: Homo sapiens
Grouping key: abundance fitness. Bins: group A = under -0.6, group B = from -0.6 up to -0.3, group C = -0.3 and over

Class (by measured abundance fitness) for I26S
group A

Class (by measured abundance fitness) for I27C
group A

Class (by measured abundance fitness) for S39W
group C

Class (by measured abundance fitness) for I27S
group A

Class (by measured abundance fitness) for W38S
group B

Class (by measured abundance fitness) for I29P
group A

Class (by measured abundance fitness) for V59E
group C

Class (by measured abundance fitness) for L42G
group B

Class (by measured abundance fitness) for K55L
group C

Class (by measured abundance fitness) for I27Y
group A
